Entries annotated with measured abundance fitness
B1: Tesmin, residues 368 to 403; numbered along this chain, Q9Y4I5 (parent)
chain: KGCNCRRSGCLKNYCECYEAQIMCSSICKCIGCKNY

# Variants of: B1
# assayInfo: abundance fitness (aPCA) (normalised: wild type 0, dead -1); higher = more abundant; growth selection in yeast, the domain comes from the species named
# setupConditions: Homo sapiens
// print number alone

# count of solved cases: 10
| variantDesignation | abundance fitness |
| --- | --- |
| C5P | -0.296 |
| C3W | -0.624 |
| C30S | -0.355 |
| C5V | -1.24 |
| I22M | -0.423 |
| C17R | -0.444 |
| K34Q | -0.107 |
| K12F | -0.01 |
| G2V | -0.209 |
| K1L | -0.211 |

[in] Could you share which abundance fitness value was measured for Q21C ?
[out] -0.235

[in] Another variant: S8Q
[out] -0.063

[in] Another variant: C15E
[out] -0.076

[in] Another variant: K29V
[out] 0.011

[in] Another variant: K34E
[out] 0.182

[in] Another variant: E19L
[out] -0.281

[in] Another variant: Y36D
[out] 0.145

[in] Another variant: C10M
[out] -0.501
